System: NCI-H522 lung
Test: NCI tumour cell line growth inhibition, 48 h
readout: log10(TGI) (log10 of the value in µM)
Quick note: numbers are log10 of TGI, with µM as the unit.

FC(F)(F)c1ccc(-c2cnc(-c3ncon3)nc2NC2CCCCCC2)cc1	1.92

Endpoint output: log10(TGI) of "COc1cc2nc(N3CCCC3)nc(NCCc3ccccc3)c2cc1OC" . Value?
0.66

Endpoint output: log10(TGI) of "O=C1C=CC2(C=C1)O[C@H](Cc1ccccc1)[C@@H](Cc1ccccc1)O2" . Value?
-0.38

---

System: LOX IMVI melanoma
Test: NCI tumour cell line growth inhibition, 48 h
readout: TGI (µM)
All answers are understood in µM, so give the number only.

Consider the reported TGI for these compounds:
CN=c1ccc2nc3ccc(N)cc3sc-2c1	9.58
COc1ccc(-c2[nH]c3ccccc3c2-c2ccc(OC)cc2)cc1	14.8
CC1(C)C=Cc2c(cc(O)c3c(=O)c4cc(Cl)ccc4[nH]c23)O1	8.11
O=C(CCl)NNC1=Nc2ccc(Cl)cc2SC1	2.48
CC(=O)/C=C/c1cn(C(=O)OC(C)(C)C)c2ccc(Br)cc12	25.2

Endpoint output: TGI of COc1nc(=O)n(COC(CO)CN2C(=O)c3ccccc3C2=O)cc1Cc1cccc(OCc2ccccc2)c1 (configuration not stated) . Value?
41.5

Endpoint output: TGI of "Cc1ccc(NC(Nc2ccc(C)cc2C)=C(/C=C(\Cl)[N+](=O)[O-])[N+](=O)[O-])c(C)c1" . Value?
3.25

Endpoint output: TGI of "O=C(Nc1ccc(OCc2nnc(-c3ccc(Cl)cc3)o2)c(F)c1)Nc1ccc(Cl)c(C(F)(F)F)c1" . Value?
6.66

Endpoint output: TGI of "O=c1[nH]cc(-c2c[nH]c3ccccc23)nc1-c1c[nH]c2ccccc12" . Value?
27.5

Endpoint output: TGI of "O=C1C(Cl)=C(Nc2ccc(S(=O)(=O)O)cc2)C(=O)c2ccccc21" . Value?
80

Endpoint output: TGI of "CN(C)CCCn1c(=O)c2ccccc2c2ccccc21" . Value?
44

Endpoint output: TGI of "OCCNCCN1CCN(CCCN2c3ccccc3Sc3ccc(C(F)(F)F)cc32)CC1" . Value?
28.5

---

Tested on: K-562 leukemia
Assay: NCI tumour cell line growth inhibition, 48 h
readout: TGI

Consider the reported TGI for these molecules:
CC(C)NCCCn1c(Sc2cc3c(cc2I)OCO3)nc2c(N)ncnc21	> 100 µM
CN(C)CCCn1c(=O)c2ccccc2c2ccccc21	> 100 µM
CC(=O)c1ccc2c(c1)CC1(C2)Cc2cc3c(cc2C1=O)CCC3 (configuration not stated)	> 100 µM
COc1cc2c(cc1OCCCn1c(-c3ccccn3)nc3ccccc31)N=C[C@@H]1CCCN1C2=O	> 55.3 µM
Cc1ccc(/C=C/C(=O)C(C)(C)CN2CCCCC2)cc1	12 µM

Endpoint output: TGI of NC(=O)c1csc(C2OC(CO)C(O)C2O)n1 (configuration not stated) . Value?
7060 µM

Endpoint output: TGI of "O=C1CCCN1C(=O)CS(=O)(=O)c1ccccc1" . Value?
> 100 µM

Endpoint output: TGI of OCC1OC(n2cnc3c(N/N=C\c4ccccn4)ncnc32)C(O)C1O (configuration not stated) . Value?
> 100 µM

Endpoint output: TGI of CCOC(=O)C1C(=S)NC(=O)C1C#N (configuration not stated) . Value?
> 100 µM
